The reported measurements were obtained from PubChem BioAssay (NCI).

- System: RXF 393 renal
- METHOD_NOTES: NCI-60 one-dose screen, 48 h (100 = growth as untreated, 0 = no growth, -100 = all killed)
- RUN_CONDITIONS: 10 µM
The panel holds about 83,000 compounds, 20% with a hit somewhere; the sample as a whole holds those more often.
VALUE_TYPE: growth (%)
Record the value in %, omitting the unit from your answer.

Data request: Quote growth reported for OCC1OC2C(NC(=S)N2c2ccccc2)C(O)C1O (stereo not given) please.
Data returned: 108

Data request: Look up and report measured growth for this entry: Nc1ccc(CC[C@H]2CCC/C=C/[C@@H]3C[C@H](O)C[C@H]3[C@H](O)/C=C/C(=O)O2)cc1
Data returned: -36.3

Data request: Provide growth value for the following compound: CC(=O)Oc1cc(OC(C)=O)c2ccccc2c1OC(C)=O
Data returned: 93.1

###

- System: SF-268 CNS
- METHOD_NOTES: NCI-60 one-dose screen, 48 h (100 = growth as untreated, 0 = no growth, -100 = all killed)
- RUN_CONDITIONS: 10 µM
Compounds without any hit were thinned out: in the full panel of roughly 83,000, 20% have a hit.
VALUE_TYPE: growth (%)
Report the value in % with no unit label.

CCCc1nc(C(C)(C)O)c(C(=O)O)n1Cc1ccc(-c2ccccc2-c2nn[nH]n2)cc1
101
COc1ccc(-c2cc(-c3ccccc3)nc(SCCCCCCC(=O)NO)n2)cc1
97.4

Data request: Report growth from SF-268 CNS testing of O[C@@H]1CO[C@H]2[C@@H]1OC[C@@H]2O
Data returned: 108

Data request: Look up and report measured growth (SF-268 CNS) for the following compound: COc1ccc(Nc2cnc3cc(NS(=O)(=O)c4ccc(C)cc4)ccc3n2)cc1
Data returned: 88.1

Data request: Report the value of growth obtained on SF-268 CNS for O=C(N/N=C/c1cc([N+](=O)[O-])ccc1O)c1cccc2ccccc12 .
Data returned: 39.8

###

- System: SNB-75 CNS
- METHOD_NOTES: NCI-60 one-dose screen, 48 h (100 = growth as untreated, 0 = no growth, -100 = all killed)
- RUN_CONDITIONS: 10 µM
The panel holds about 83,000 compounds, 20% with a hit somewhere; the sample as a whole holds those more often.
Lab note: compare growth with 50%, writing true (1) if less and false (0) if equal or more.

Cc1cc(O)ccc1C1=NN(c2ccc(S(C)(=O)=O)cc2)C(=O)CC1
false (0)
COc1ccc(/C=C2\CCCC3=C2N=C2SC(C)=CN2C3c2ccc(OC)cc2)cc1 (centres undefined)
false (0)
CN(C)c1ncnc2c1nnn2C1OC(CO)C(O)C1O (centres undefined)
true (1)
C[C@@H](O)[C@H]1C(=O)N2C(C(=O)O)=C(SC3CN[C@H](C(=O)N(C)C)C3)[C@H](C)[C@H]12 (some centres undefined)
false (0)
CC(=O)Nc1ccc(S(=O)(=O)c2ccnc3cc(Cl)ccc23)cc1
false (0)
CCN1CC(CCN2CCOCC2)C(C(c2ccccc2)c2ccccc2)C1=O (centres undefined)
false (0)

Proceed to the following item.
Data request: Check if growth falls below 50% for Oc1ccc(-c2[nH]c3ccccc3c2-c2nc3ccccc3o2)cc1 .
Data returned: false (0)

###

growth values, listed per item
- System: UACC-257 melanoma
- METHOD_NOTES: NCI-60 one-dose screen, 48 h (100 = growth as untreated, 0 = no growth, -100 = all killed)
- RUN_CONDITIONS: 10 µM
About 83,000 compounds went through this panel and 20% of them were active in at least one assay; those are over-represented in the sample as a whole.
Numeric only. Scale: %

Please review the entries below; each comes with its answer.
Nc1ccn(Cc2nnc(CCC(=O)c3nc4ccccc4[nH]3)o2)c(=O)n1
101
O=C(Nc1ccc(OCc2nnc(-c3ccc(Cl)cc3)o2)c(F)c1)Nc1ccc(Cl)c(C(F)(F)F)c1
-4.65
Cc1ccc(-n2nnnc2N)c(C)c1
108
CC(C)(C)OC(=O)N1CCc2c(sc3ncnc(N/N=C/c4ccccc4Br)c23)C1
82.6
Cc1cc(Cl)ccc1Nc1nc(C(F)(F)F)ccc1C(=O)N/N=C/c1cccc(O)c1
44.1
NS(=O)(=O)c1ccc(Br)cc1
88.2
c1ccc(CSc2ncccc2-c2nnc(SCCN3CCOCC3)o2)cc1
147
COC(=O)C1(O)NC(=C(C#N)C#N)C(C#N)=C1C(=O)c1ccc(OC)c(OC)c1 (stereo not given)
81.7

Data request: Note down growth recorded for COc1ccc(NC(=O)C2CC3C=CC2C3)c([N+](=O)[O-])c1 (stereo not given)
Data returned: 98.1

Data request: Provide one value: measured growth of CN(C)CCCOc1ccccc1NC1=C(Cl)C(=O)C(Nc2ccccc2OCCCN(C)C)=C(Cl)C1=O
Data returned: -92.9
